Exercise: for every item that follows, state its recorded Max growth inhibition (%).
# targetEntity: PfRH5 from Plasmodium falciparum strain Cam3.II (Plasmodium falciparum)
# assayInfo: cell-based or functional assay

Field request: Max growth inhibition (%) | item: H1H29127P (antibody, V domains shown) VH: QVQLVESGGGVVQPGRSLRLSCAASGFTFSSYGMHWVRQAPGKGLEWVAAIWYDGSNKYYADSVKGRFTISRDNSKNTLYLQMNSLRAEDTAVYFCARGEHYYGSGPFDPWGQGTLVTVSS VL: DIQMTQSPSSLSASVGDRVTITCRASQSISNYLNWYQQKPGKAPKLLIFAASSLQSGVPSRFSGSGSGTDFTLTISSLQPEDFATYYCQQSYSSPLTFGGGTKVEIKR
47%

Please do the same for H1H29104P (antibody, V domains shown) VH: EVQLVESGGGLVQPGRSLRLSCAASGFRFDDYAMHWVRQAPGKGLEWVSGINWNSGGKGYADSVQGRFTISRDNAKNSLYLQMNSLRTEDTALYYCAKDRGIAARLLSRDAFDMWGQGTMVTVSS VL: DIQLTQSPSFLSASVGDRVTITCWASQDVSSYLAWYQQKPGKSPKLLIFAASTLQGGIPSRFSGSGSGTEFTLTISSLRPEDFATYYCQHLNTYPYTFGQGTKLEIKR as well.
50%

Please do the same for H1H29125P (antibody, V domains shown) VH: QVQLVESGGGVVQPGRSLRLSCAASGFTFSSYGMHWVRQAPGKGLEWMAVISYDGSNKYYADSVKGRFTISRDNSKNTLFLQMNSLRPEDTAVYYCAQDGSSAIYYFYGMDVWGQGTTVTVSS VL: DIQMTQSPSSLSASIGDRVTITCRASQDINNYLAWFQQKPGKAPKSLIYAASSLQSGVPSKFSGSGSGTDFTLTISSLQPEDFATYYCLQYNSYHPTFGQGTKLEIKR as well.
42.7%
